tested on: A549; test: Antiproliferative activity against human A549 cells assessed as inhibition of cell growth incubated for 48 hrs by CCK-8 reagent based spectrophotometric analysis; assay type: functional; settings: A549, 48 h
Each entry below carries its reported IC50.
A number alone suffices; assume µM.

compound_structure_string=C=C(C)[C@@H]1CC[C@]2(C(=O)O)CC[C@]3(C)[C@H](CC[C@@H]4[C@@]5(C)C[C@@H](Cc6cn([C@H]7C[C@H](n8cc(C)c(O)nc8=O)O[C@@H]7CO)nn6)[C@H](O)C(C)(C)[C@@H]5CC[C@]43C)[C@@H]12 measurement_type=IC50 test_value=64.4

Moving on to another compound below.
Reported IC50 ( C=C(C)[C@@H]1CC[C@]2(C(=O)OC)CC[C@]3(C)[C@H](CC[C@@H]4[C@@]5(C)C[C@@H](Cc6cn([C@]7(CO)O[C@@H](n8ccc(O)nc8=O)[C@H](O)[C@@H]7O)nn6)C(=O)C(C)(C)[C@@H]5CC[C@]43C)[C@@H]12 ) = 70.8
